Target: Peroxisome proliferator-activated receptor alpha (Homo sapiens, UniProt Q07869)
Sequence (Q07869 whole entry): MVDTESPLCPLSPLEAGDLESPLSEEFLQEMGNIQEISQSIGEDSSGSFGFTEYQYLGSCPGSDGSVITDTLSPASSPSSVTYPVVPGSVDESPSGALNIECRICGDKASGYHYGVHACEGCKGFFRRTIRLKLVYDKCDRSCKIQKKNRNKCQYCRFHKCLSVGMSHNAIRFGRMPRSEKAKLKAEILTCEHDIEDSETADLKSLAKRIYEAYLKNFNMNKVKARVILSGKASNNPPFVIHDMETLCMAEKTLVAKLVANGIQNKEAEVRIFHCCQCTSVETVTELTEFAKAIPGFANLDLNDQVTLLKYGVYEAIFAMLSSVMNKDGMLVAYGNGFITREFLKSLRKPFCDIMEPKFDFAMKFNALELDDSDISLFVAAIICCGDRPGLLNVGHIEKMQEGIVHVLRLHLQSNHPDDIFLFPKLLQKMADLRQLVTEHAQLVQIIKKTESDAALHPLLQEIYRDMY
Test: Agonist activity at human PPAR alpha by FRET assay
Format: functional
pEC50: −log10 of the molar value.
Listed next: entries and their corresponding pEC50.
Endpoint label: pEC50

Structure smiles string: COc1cccc(OCCCOc2ccc3c(c2)CC[C@H]3CC(=O)O)c1
Endpoint label: pEC50
Assay value: < 5.00
//
Structure smiles string: Cc1c(OCCCOc2ccc3c(c2)CC[C@H]3CC(=O)O)ccc2[nH]ccc12
Endpoint label: pEC50
Assay value: < 5.00
//
Structure smiles string: CCCc1c(OCCCOc2ccc3c(c2)CC[C@H]3CC(=O)O)ccc2c1ccn2C
Endpoint label: pEC50
Assay value: < 5.00

====

Molecular target: Peroxisome proliferator-activated receptor delta (Homo sapiens, UniProt Q03181)
Sequence (Q03181 whole entry): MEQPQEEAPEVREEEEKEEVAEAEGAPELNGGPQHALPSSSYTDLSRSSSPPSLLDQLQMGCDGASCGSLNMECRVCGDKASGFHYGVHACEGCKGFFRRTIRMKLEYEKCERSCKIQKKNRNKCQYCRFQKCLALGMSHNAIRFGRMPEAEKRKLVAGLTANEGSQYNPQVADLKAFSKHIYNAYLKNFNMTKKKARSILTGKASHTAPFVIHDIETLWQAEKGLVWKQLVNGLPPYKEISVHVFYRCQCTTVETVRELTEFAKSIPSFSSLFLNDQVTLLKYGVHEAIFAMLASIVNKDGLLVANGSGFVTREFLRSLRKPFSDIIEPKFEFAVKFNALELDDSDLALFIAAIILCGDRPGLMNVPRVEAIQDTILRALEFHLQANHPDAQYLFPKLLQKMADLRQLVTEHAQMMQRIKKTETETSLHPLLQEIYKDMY
Experiment: Agonist activity at human PPAR delta by FRET assay
Format: functional
pEC50: −log10 of the molar value.

Structure smiles string: COc1cc(-c2nc(C)c(C(=O)O)s2)ccc1OCCCOc1ccc2c(c1)CC[C@H]2CC(=O)O
pEC50: 7.55

Structure smiles string: CCCc1cc(-c2nc(CC)cs2)ccc1OCCCOc1ccc2c(c1)CC[C@H]2CC(=O)O
pEC50: 7.96

Structure smiles string: CCc1ccc(OCCCOc2ccc3c(c2)CC[C@H]3CC(=O)O)cc1
pEC50: 8.05

Structure smiles string: Cn1ccc2cc(OCCCOc3ccc4c(c3)CC[C@H]4CC(=O)O)ccc21
pEC50: 7.40

Structure smiles string: O=C(O)C[C@@H]1CCc2cc(OCCCOc3ccc(-c4ccc5cc[nH]c5c4)cc3)ccc21
pEC50: 8.82

Structure smiles string: COc1cc(-c2nc(C)cs2)ccc1OCCCOc1ccc2c(c1)CC[C@H]2CC(=O)O
pEC50: 8.57

Structure smiles string: CCCc1cc(-c2nc(OCC)cs2)ccc1OCCCOc1ccc2c(c1)CC[C@H]2CC(=O)O
pEC50: 8.70

Structure smiles string: CCCc1cc(Oc2ccccc2)ccc1OCCCOc1ccc2c(c1)CC[C@H]2CC(=O)O
pEC50: 8.72

Structure smiles string: CCCc1cc(-c2nc(C)c(C(C)=O)s2)ccc1OCCCOc1ccc2c(c1)CC[C@H]2CC(=O)O
pEC50: 7.74

Structure smiles string: CCCc1cc(-c2nc(C)c(C(=O)N(C)C)s2)ccc1OCCCOc1ccc2c(c1)CC[C@H]2CC(=O)O
pEC50: 8.36

Structure smiles string: O=C(O)C[C@@H]1CCc2cc(OCCCOc3ccc(-c4ccccc4)cc3)ccc21
pEC50: 7.37

Structure smiles string: CCCc1c(OCCCOc2ccc3c(c2)CC[C@H]3CC(=O)O)ccc2[nH]ccc12
pEC50: 8.21

Structure smiles string: CCOc1cc(C)ccc1OCCCOc1ccc2c(c1)CC[C@H]2CC(=O)O
pEC50: 8.66

====

Molecular target: Peroxisome proliferator-activated receptor gamma (Mus musculus)
Sequence (P37238 whole entry): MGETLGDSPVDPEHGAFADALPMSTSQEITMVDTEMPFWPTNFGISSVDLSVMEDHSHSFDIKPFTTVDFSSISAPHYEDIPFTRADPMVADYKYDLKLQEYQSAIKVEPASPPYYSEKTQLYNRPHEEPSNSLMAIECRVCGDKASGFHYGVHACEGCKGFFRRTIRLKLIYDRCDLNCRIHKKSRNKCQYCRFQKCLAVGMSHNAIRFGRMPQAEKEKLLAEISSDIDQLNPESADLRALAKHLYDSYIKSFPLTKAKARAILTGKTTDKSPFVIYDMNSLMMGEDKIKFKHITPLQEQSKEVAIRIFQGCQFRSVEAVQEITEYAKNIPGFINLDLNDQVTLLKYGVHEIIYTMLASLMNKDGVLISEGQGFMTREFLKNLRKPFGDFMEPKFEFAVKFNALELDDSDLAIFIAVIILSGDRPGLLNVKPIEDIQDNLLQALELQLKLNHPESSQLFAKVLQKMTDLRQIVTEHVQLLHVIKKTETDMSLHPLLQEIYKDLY
Assay: Agonist activity at PPAR gamma in mouse 3T3L1 cells assessed as increase in insulin receptor by IRBA

Structure smiles string: COc1cc(-c2nc3c(s2)CCC3)ccc1OCCCOc1ccc2c(c1)CC[C@H]2CC(=O)O
Unit abbrev: nM
EC50: 116
--
Structure smiles string: O=C(O)C[C@@H]1CCc2cc(OCCCOc3ccc(OC(F)(F)F)cc3)ccc21
Unit abbrev: nM
EC50: 1020
--
Structure smiles string: CCOc1csc(-c2ccc(OCCCOc3ccc4c(c3)CC[C@H]4CC(=O)O)cc2)n1
Unit abbrev: nM
EC50: 753
--
Structure smiles string: CCOc1ccc(OCCCOc2ccc3c(c2)CC[C@H]3CC(=O)O)cc1
Unit abbrev: nM
EC50: 940
--
Structure smiles string: CCOc1csc(-c2ccc(OCCCOc3ccc4c(c3)CC[C@H]4CC(=O)O)c(OC)c2)n1
Unit abbrev: nM
EC50: 920

====

Molecular target: Peroxisome proliferator-activated receptor gamma (Mus musculus, UniProt P37238)
Sequence (P37238 whole entry): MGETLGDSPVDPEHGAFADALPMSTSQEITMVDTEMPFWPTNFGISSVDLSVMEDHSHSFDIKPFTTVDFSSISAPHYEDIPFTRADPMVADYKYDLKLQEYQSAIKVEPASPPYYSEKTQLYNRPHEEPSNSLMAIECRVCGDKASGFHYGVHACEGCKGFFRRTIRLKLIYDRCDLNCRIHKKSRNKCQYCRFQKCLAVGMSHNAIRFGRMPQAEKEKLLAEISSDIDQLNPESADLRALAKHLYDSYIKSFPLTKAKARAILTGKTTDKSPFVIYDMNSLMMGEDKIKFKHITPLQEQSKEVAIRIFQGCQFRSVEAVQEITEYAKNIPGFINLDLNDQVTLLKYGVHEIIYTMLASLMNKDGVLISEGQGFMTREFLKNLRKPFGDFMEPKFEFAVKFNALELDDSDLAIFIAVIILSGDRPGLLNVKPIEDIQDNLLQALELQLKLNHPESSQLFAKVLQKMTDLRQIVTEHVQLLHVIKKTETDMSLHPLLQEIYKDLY
Assay: Agonist activity at PPAR gamma in mouse 3T3L1 cells assessed as increase in insulin receptor by IRBA
pEC50: −log10 of the molar value.
just bin them by pEC50: low band: < 6; middle band: ≥ 6 and < 7; high band: ≥ 7

Structure smiles string: COc1cc(-c2nc(C)c(C)s2)ccc1OCCCOc1ccc2c(c1)CC[C@H]2CC(=O)O
Class label: high band
--
Structure smiles string: O=C(O)C[C@@H]1CCc2cc(OCCCOc3ccc(C(F)(F)F)cc3)ccc21
Class label: low band
--
Structure smiles string: CCCc1cc(-c2nc(OCC)c(C)s2)ccc1OCCCOc1ccc2c(c1)CC[C@H]2CC(=O)O
Class label: high band
--
Structure smiles string: COc1csc(-c2ccc(OCCCOc3ccc4c(c3)CC[C@H]4CC(=O)O)cc2)n1
Class label: middle band
--
Structure smiles string: Cc1cc2cc(OCCCOc3ccc4c(c3)CC[C@H]4CC(=O)O)ccc2[nH]1
Class label: low band
--
Structure smiles string: CCCc1cc(-c2nc(CC)cs2)ccc1OCCCOc1ccc2c(c1)CC[C@H]2CC(=O)O
Class label: high band
--
Structure smiles string: CCOc1nc(-c2ccc(OCCCOc3ccc4c(c3)CC[C@H]4CC(=O)O)c(OC)c2)sc1CC
Class label: middle band
